Reported values of Papp B→A at 120 min, 10 µM for individual entries
- assay.name: Bidirectional permeability assay (Caco-2 cells)
- Format: in vitro ADME
- run.conditions: human, secretory direction (B2A), 10 μM in FaSSIF buffer, 120 minutes at 37° C.

# compound, Papp B→A at 120 min, 10 µM [×10⁻⁶ cm/s]
measured = [
    ("CCCCC1(C)CN(c2ccccc2)c2cc(SC)c(CSCC(=O)O)cc2S(=O)(=O)C1 (single isomer, unassigned) [5, enantiomer 1]", 25.3),
    ("CCCCC1(CC)CN(c2ccccc2)c2cc(SC)c(CSCC(=O)O)cc2S(=O)(=O)C1 (single isomer, unassigned) [2, enantiomer 1]", 9.3),
    ("CCCCC1(CC)CN(c2ccc(F)cc2)c2cc(SC)c(CSCC(=O)O)cc2S(=O)(=O)C1 (single isomer, unassigned) [7, enantiomer 1]", 21.3),
]

---

Reported values of log10(IC50) for individual entries
- target.entity: hIBAT (Homo sapiens)
- Construct: kept under Puromycin selection
- Sequence (Q12908 whole entry): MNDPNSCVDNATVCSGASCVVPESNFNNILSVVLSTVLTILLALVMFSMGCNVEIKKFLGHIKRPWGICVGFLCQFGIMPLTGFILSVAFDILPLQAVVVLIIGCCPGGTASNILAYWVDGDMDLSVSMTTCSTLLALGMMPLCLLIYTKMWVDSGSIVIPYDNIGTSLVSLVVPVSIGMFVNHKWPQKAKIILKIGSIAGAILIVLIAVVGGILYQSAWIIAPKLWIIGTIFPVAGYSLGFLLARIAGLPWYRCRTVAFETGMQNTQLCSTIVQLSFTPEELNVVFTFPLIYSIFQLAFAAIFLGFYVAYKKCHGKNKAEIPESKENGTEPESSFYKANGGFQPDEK
- assay.name: IBAT (h/m) assay: 3H-taurocholic acid uptake in human IBAT-overexpressing cells
- run.conditions: 0.25 μM 3H-taurocholic acid + 5 μM cold taurocholic acid, 20 minutes at 37° C., highest test concentration 10 μM
measured.endpoint: log10(IC50) (log10 of the value in nM)

# compound, measured.endpoint, numeric.readout
rows = [
    ("CCCCC1(CC)CN(c2ccc(F)cc2)c2cc(SC)c(CSC(C)(C)C(=O)O)cc2S(=O)(=O)C1 (racemic) [Example 15]", "log10(IC50)", 1.78),
    ("CCCCC1(CC)CN(c2ccccc2)c2cc(OC)c(CSCC(=O)O)cc2S(=O)(=O)C1 (racemic) [Example 13]", "log10(IC50)", 0.36),
    ("CCCCC1(CC)CN(c2ccc(F)cc2)c2cc(SC)c(CSCC(=O)O)cc2S(=O)(=O)C1 (single isomer, unassigned) [7, enantiomer 2]", "log10(IC50)", 0.45),
    ("CCCCC1CN(c2ccc(F)cc2)c2cc(OC)c(CSCC(=O)O)cc2S(=O)(=O)N1C (single isomer, unassigned) [30, enantiomer 2]", "log10(IC50)", 2.54),
    ("CCCCC1(CCCC)CN(c2ccccc2)c2cc(OC)c(CSCC(=O)O)cc2S(=O)(=O)C1", "log10(IC50)", 0.11),
    ("CCCCC1CN(c2ccccc2)c2cc(SC)c(CSCC(=O)O)cc2S(=O)(=O)N1C (racemic) [Example 11]", "log10(IC50)", 1.85),
    ("CCCCC1(C)CN(c2ccccc2)c2cc(SC)c(CSC(C)(C)C(=O)O)cc2S(=O)(=O)C1 (single isomer, unassigned) [19, enantiomer 2]", "log10(IC50)", 3.27),
    ("CCCCC1(CC)CN(c2ccccc2)c2cc(S(C)(=O)=O)c(CSCC(=O)O)cc2S(=O)(=O)N1 (single isomer, unassigned) [48, enantiomer 1]", "log10(IC50)", 2.36),
    ("CCCCC1(C)CN(c2ccccc2)c2cc(SC)c(CSCC(=O)O)cc2S(=O)(=O)C1 (single isomer, unassigned) [5, enantiomer 2]", "log10(IC50)", 1.64),
    ("CCCCC1CN(c2ccccc2)c2cc(SC)c(CSCC(=O)O)cc2S(=O)(=O)N1C (single isomer, unassigned) [12, enantiomer 1]", "log10(IC50)", 2.06),
    ("CCCCC1(C)CN(c2ccccc2)c2cc(OC)c(CSCC(=O)O)cc2S(=O)(=O)N1 (centres unmarked)", "log10(IC50)", 1.15),
    ("CCCCC1(CC)CN(c2ccc(F)cc2)c2cc(SC)c(CSC(C)(C)C(=O)O)cc2S(=O)(=O)C1 (single isomer, unassigned) [16, enantiomer 2]", "log10(IC50)", 2.82),
    ("CCCCC1(CC)CN(c2ccccc2)c2cc(SC)c(CSCC(=O)O)cc2S(=O)(=O)N1 (racemic) [Example 9]", "log10(IC50)", -0.30),
    ("CCCCC1(C)CN(c2ccccc2)c2cc(N(C)C)c(CSCC(=O)O)cc2S(=O)(=O)N1 (centres unmarked)", "log10(IC50)", 0.87),
    ("CCCCC1CN(c2ccccc2)c2cc(SC)c(CSCC(=O)O)cc2S(=O)(=O)N1C (single isomer, unassigned) [12, enantiomer 2]", "log10(IC50)", 2.06),
    ("CCCCC1(CC)CN(c2ccc(F)cc2)c2cc(SC)c(CSC(C)(C)C(=O)O)cc2S(=O)(=O)C1 (single isomer, unassigned) [16, enantiomer 1]", "log10(IC50)", 1.00),
    ("CCCCC1CN(c2ccccc2)c2cc(OC)c(CSC(C)(C)C(=O)O)cc2S(=O)(=O)N1C (single isomer, unassigned) [38, enantiomer 2]", "log10(IC50)", 3.20),
    ("CCCCC1(CC)CN(c2ccccc2)c2cc(OC)c(CSC(C)(C)C(=O)O)cc2S(=O)(=O)C1 (single isomer, unassigned) [26, enantiomer 2]", "log10(IC50)", 3.71),
    ("CCCCC1(CCCC)CN(c2ccccc2)c2cc(SC)c(CSCC(=O)O)cc2S(=O)(=O)C1", "log10(IC50)", 0.23),
    ("CCCCC1(CC)CN(c2ccccc2)c2cc(OC)c(CSCC(=O)O)cc2S(=O)(=O)C1 (single isomer, unassigned) [14, enantiomer 2]", "log10(IC50)", 1.81),
    ("CCCCC1(CC)CN(c2ccccc2)c2cc(N(C)C)c(CSCC(=O)O)cc2S(=O)(=O)N1 (centres unmarked)", "log10(IC50)", 0.68),
    ("CCCC[C@@H]1CN(c2ccccc2)c2cc(N(C)C)c(CSCC(=O)O)cc2S(=O)(=O)N1", "log10(IC50)", 3.37),
    ("CCCCC1(CCCC)CN(c2ccccc2)c2cc(SC)c(CSCC(=O)O)cc2S(=O)(=O)N1C", "log10(IC50)", 2.95),
]

---

- target.entity: hIBAT (Homo sapiens)
- Construct: expressed in transfected cells; kept under Puromycin selection
- assay.name: IBAT (h/m) assay: 3H-taurocholic acid uptake in human IBAT-overexpressing cells
- Type: cell-based
- run.conditions: 0.25 μM 3H-taurocholic acid + 5 μM cold taurocholic acid, 20 minutes at 37° C., highest test concentration 10 μM
pIC50: −log10 of the molar value.

# molecule, limit.qualifier, pIC50
records = [
    ("CCCCC1(CC)CN(c2ccccc2)c2cc(SC)c(CSC(C)(C)C(=O)O)cc2S(=O)(=O)N1C (stereo not shown) [Example 24]", "<", 5.48),
    ("CCCCC1CN(c2ccc(F)cc2)c2cc(OC)c(CSCC(=O)O)cc2S(=O)(=O)N1C (racemic) [Example 29]", "=", 6.25),
    ("CCCCC1(C)CN(c2ccccc2)c2cc(OC)c(CSC(C)(C)C(=O)O)cc2S(=O)(=O)C1 (single isomer, unassigned) [42, enantiomer 1]", "=", 6.15),
    ("CCCCC1(CC)CN(c2ccccc2)c2cc(SC)c(CSCC(=O)O)cc2S(=O)(=O)N1C (stereo not shown) [Example 20]", "=", 6.28),
    ("CCCCC1(CC)CN(c2ccccc2)c2cc(OC)c(CSCC(=O)O)cc2S(=O)(=O)C1 (single isomer, unassigned) [14, enantiomer 1]", "=", 8.96),
    ("CCCCC1(CC)CN(c2ccccc2)c2cc(OC)c(CSCC(=O)O)cc2S(=O)(=O)N1 (racemic) [Example 44]", "=", 8.28),
    ("CCCCC1(CC)CN(c2ccc(F)cc2)c2cc(OC)c(CSCC(=O)O)cc2S(=O)(=O)C1 (racemic) [Example 39]", "=", 8.60),
]

---

Reported values of IC50 for individual entries
- target.entity: hLBAT (Homo sapiens)
- Construct: kept under Geneticin selection
- Sequence (Q14973 whole entry): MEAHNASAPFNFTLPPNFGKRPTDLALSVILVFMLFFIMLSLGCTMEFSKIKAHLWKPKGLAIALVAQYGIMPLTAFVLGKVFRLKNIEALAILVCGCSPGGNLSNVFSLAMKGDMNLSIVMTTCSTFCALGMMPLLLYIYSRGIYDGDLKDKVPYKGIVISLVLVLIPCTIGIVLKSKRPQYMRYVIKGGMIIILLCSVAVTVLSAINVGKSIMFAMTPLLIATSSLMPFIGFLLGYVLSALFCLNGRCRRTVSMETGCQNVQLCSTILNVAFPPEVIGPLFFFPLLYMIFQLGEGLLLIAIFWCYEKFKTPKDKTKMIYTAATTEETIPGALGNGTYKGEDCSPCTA
- assay.name: LBAT (h/m) assay: 3H-taurocholic acid uptake in human LBAT-overexpressing cells
- run.conditions: 0.3 μM 3H-taurocholic acid + 7.5 μM cold taurocholic acid, 20 minutes at 37° C.
measured.endpoint: IC50 (nM)

# compound, units.text, limit.qualifier, numeric.readout
rows = [
    ("CCCCC1(CC)CN(c2ccccc2)c2cc(SC)c(CSC(C)(C)C(=O)O)cc2S(=O)(=O)N1C (stereo not shown)", "nM", "=", 85),
    ("CCCCC1(C)CN(c2ccccc2)c2cc(OC)c(CSC(C)(C)C(=O)O)cc2S(=O)(=O)C1 (single isomer, unassigned) [42, enantiomer 2]", "nM", "=", 241),
    ("CCCCC1CN(c2ccc(F)cc2)c2cc(OC)c(CSCC(=O)O)cc2S(=O)(=O)N1C (single isomer, unassigned) [30, enantiomer 2]", "nM", "=", 200),
    ("CCCCC1(CC)CN(c2ccc(F)cc2)c2cc(OC)c(CSC(C)(C)C(=O)O)cc2S(=O)(=O)C1 (racemic) [Example 33]", "nM", "=", 150),
    ("CCCCC1(C)CN(c2ccccc2)c2cc(OC)c(CSC(C)(C)C(=O)O)cc2S(=O)(=O)C1 (single isomer, unassigned) [42, enantiomer 1]", "nM", "=", 223),
    ("CCCCC1(C)CN(c2ccccc2)c2cc(OC)c(CSCC(=O)O)cc2S(=O)(=O)C1 (single isomer, unassigned) [28, enantiomer 2]", "nM", ">", 10000),
    ("CCCCC1(CCCC)CN(c2ccccc2)c2cc(OC)c(CSC(C)(C)C(=O)O)cc2S(=O)(=O)C1", "nM", "=", 251),
]
